Just for reference, the supplement of paper PMC9170038 is where these values come from.

# Tested on: MS2 coat protein
# TEST DETAILS: apparent KD of MS2 coat protein; designed switch direction (-1 OFF switch, 1 ON switch): 1; higher = weaker reporter binding
# EXPERIMENTAL PARAMETERS: input ligand: FMN 200 uM
Would you mind labelling by apparent KD of MS2 coat protein? At or over 0.06 µM is condition met, under is condition not met.

Past entries and their recorded results:
RESIDUE STRING	TARGET OF ASSAY	CATEGORY LABEL
GUAGCAUACCGAGGAUAUUCAACAUGAGGAUCACCCAUGUGUUUGUUAUAGGCCAAAAGGCCUUGGGAGAAGGCGGAAUGCUAC [Xeonanis - 20 Mod16] (Eterna round: R96, puzzle: Same State NG 2)	MS2 coat protein	condition not met
UAAUUAAAGCAAGGAUAUCACGUCGAAUAGACGUGAGAAGGUGCUCCUUACAUGAGGAUCACCCAUGUAUAACAUGAAUAAUUA [SSNG1/10-B1] (Eterna round: R96, puzzle: Same State NG 1)	MS2 coat protein	condition met
GCACAUGAGGAUCACCCAUGUGCGCUUGGUUGUCCAAGCGCACAGGAUAUACCUCCCAAUGGGAGGUAGAAGGGUGAAAAGAAA [Orraveceat] (Eterna round: R96, puzzle: Same State NG 3)	MS2 coat protein	condition not met
GUGGUCAGACAUGAGGAUCACCCAUGUGGAAUAAAUAACAGACAGGAUAUCGAAUAUAGGAUAUAUGAGAAGGGUCGAUUGGUG (Eterna round: R96, puzzle: Same State NG 3)	MS2 coat protein	condition met

Then this sequence:
*Q* Hi team, for UGGCUGGUGCUAGGAUAUGCAUGAGGCCUCCUCGUAGAAGGAGCACGACAUGAGGAUCACCCAUGUAGCCGUCCGUAGACGGCU [salish99_SSNG1_r04_011] (Eterna round: R96, puzzle: Same State NG 1) , is the recorded apparent KD of MS2 coat protein at or above 0.06 µM?
*A* condition met

====

# apparent KD of MS2 coat protein annotations
# Tested on: MS2 coat protein
# TEST DETAILS: apparent KD of MS2 coat protein; higher = weaker reporter binding
# EXPERIMENTAL PARAMETERS: Eterna round: R107; input ligand: arginine 13.2 mM
Number only, in nM; omit the unit.

RESIDUE STRING	TARGET OF ASSAY	NUMBER
UCAUAAGUACCGGUCCUCAGAUCCUCAUGACGAGGACCGGUACGGCCGCCACUCGAAACAUGAGGAUCACCCAUGUAAUAAUAUU [Brourdmod11]	MS2 coat protein	19.5
ACAUGAGGAUCACCCAUGUAUUCAUCAGAAGGAGCGUGGAAUAACACAGGUAGGUCGCUGAUUAUUUGUUAAAUAAAAUCGUGUA [JR_Nu_SSArginiA_Sub022]	MS2 coat protein	12.5
CCUAGCACACAUGAUACCAGCGACAUGAGGAUCACCCAUGUACGGCGUGUAUCGCAAGGUUGCCCUUGGCAGCAUGAUAGUGCUG [Xeerdi]	MS2 coat protein	12.7
CCUAUAUAGUCGGCCGCCACUGACUACAUGAGGAUCACCCAUGUAACACGAACAUGGUCCUGGAUCAGGACCGGGACUAUAUAGG [Tryp B Ex t5]	MS2 coat protein	16.5
UACAUAUGCCGAAGGAGCGUGAGAUGCAAAGCAUCAUUCCUCACAUGAGGAUCACCCAUGUCACAGGUAGGUCGCGGCAUAUGUU [ArgBX 3]	MS2 coat protein	94.3

The reported apparent KD of MS2 coat protein of the sequence UUCUACAUGAGGAUCACCCAUGUGGGUGAUACCAGCACUUUUUGGUGCCCUUGGCAGCACAUGAGAAUACCGUACGAUCGGCGAU [Arainbi] was 122

====

# System: MS2 coat protein
# TEST DETAILS: apparent KD of MS2 coat protein, switch ON state; designed switch direction (-1 OFF switch, 1 ON switch): -1; higher = weaker reporter binding
# EXPERIMENTAL PARAMETERS: FMN input: 0 or 200 uM; Eterna round: R93 (includes R88 designs)
Just so you know, the groups by apparent KD of MS2 coat protein go like this: low-valued: < 20 nM; mid-valued: ≥ 20 nM and < 40 nM; high-valued: ≥ 40 nM

Sample answers from the record:
RESIDUE STRING	CATEGORY LABEL
GUCAGCUGAGGAUAUACAGGUGAUGCCGCAGAACAAAAUAUACAUGAGGAUCACCCAUGUAGAAGGCGGAAGAC [Terian]	high-valued
AAAAAACAUGAGGAUCACCCAUGUAAGGAUAUGUGAAAAAAAAAAUAAAAAAAAAAAAGCAGAAGGUACAAAAA [LROPPY Exclusion 1 - v01_deltaG=3.64]	high-valued
ACCAAUGGAGGAUAUACAUGAGGAUCACCCAUGUUUAUCCUACAUAGGUGAAAAACAUGUAGAAGGCCAUAGGA [EX3 237: Super Stable 37]	low-valued
UAACAGUCAGGAUAUGGACAAUACAAUACAAACAAAUAAAGCCAGAAGGGACAUGAGGAUCACCCAUGUAAACA [Simple]	high-valued
AAAUUGUCAGGAUAUCUUAGAACUCUAAAAUAGAGGAGCUAAGAGAAGGGACAUGAGGAUCACCCAUGUAAAAC [May 89]	high-valued
AAAUAGCAAGGAUAUACAUGAGGAUCACCCAUGUAAAAAUGGAAAGUAAAAGAAUAAAGUAGAAGGUGCAAAUA [Ex 3 Tesla 2]	mid-valued

*Q* Record AACAUGUGAGGAUAUUUAAGAAAAGAAAAGAAAGAAAAGAAAAAGAAGGCACAUGAGGAUCACCCAUGUAAGAA [EteRNA is fun!] — which class?
*A* mid-valued

*Q* Textbook exercise: identify the category of the sequence given here, AAGAAGUCAGGAUAUCGAAGACAGACGAAAAGUCUGUCAAACGAGAAGGGACAUGAGGAUCACCCAUGUAAGAA [What have we learned so far? 64% 1] , according to its measured value.
*A* high-valued

*Q* State the class of the sequence shown: CUCAAGUUAGGAUAUCUAAGAAAAGAAGAGAAAGAAAAGAAAGAGAAGGAACAUGAGGAUCACCCAUGUAAGAA [EteRNA is fun!]
*A* low-valued

*Q* Which bin, given its apparent KD of MS2 coat protein, does AGUUGGCGAGGAUAUACAUGAGGAUCACCCAUGUGAGAGAUAAAAGUGAGAAAGAAAAGUAGAAGGCGCUAACA [JL Lego Mod 20] occupy?
*A* high-valued

*Q* Could you tell me which band UCCGGACAUGAGGAUCACCCAUGUGAGGAUAUAUAAAGUGGGACUGGAAACAGGCCCAAUAGAAGGCACAUGAC [Atatesin] belongs to?
*A* mid-valued

*Q* Any idea which band AAAAAGUAAGGAUAUACAAAAGAAAACACAAAAAAAAAAAAACAUGAGGAUCACCCAUGUAGAAGGUACAAAAA [Ex2 Malc#1] is in?
*A* mid-valued

*Q* Quick check: band for AAAAAGUGAGGAUAUGCAGUGGCCUGUAGACGCAAGCACUUGUAGAAGGCACAUGAGGAUCACCCAUGUUUAAA [EX4 Malc#30]
*A* mid-valued

====

# Tested on: MS2 coat protein
# TEST DETAILS: apparent KD of MS2 coat protein; higher = weaker reporter binding
# EXPERIMENTAL PARAMETERS: Eterna round: R107; input ligand: arginine 13.2 mM
MEASUREMENT TYPE: apparent KD of MS2 coat protein

RESIDUE STRING	apparent KD of MS2 coat protein
AAUUAUCAGUCGGCCGCCACUGACACAUGAGGAUCACCCAUGUAACUUGGGAUAAAUUUAAUAAACAGGACCGGGACAAAGGCUA [JR_ExcTryptoB_Sub011]	36.6 nM
UCGCAUUGCUCAGAUACCAGACAUGAGGAUCACCCAUGUACCAAGGUAACCGAAAGGCAUGUCCCUUGGCAGCUGAGCAAUGCGU [MAT - Exclusion Theophlline B - Mod of Eli - D14]	12.4 nM
ACAUGAGGAUCACCCAUGUAACAACGGGAAGGAGCGCCAAACAAGGCAGGUAGGUCGCCCACAUGAGGAUCACCCAUGUGUUGGG [Exclusion Arginine A GF 27]	30.7 nM

// recorded apparent KD of MS2 coat protein for UACAUAUGCCGAAGGAGCGCGAGAAGCAAAGCUUCAUUCCUCACAUGAGGAUCACCCAUGUCGCAGGUAGGUCGCGGCAUAUGUU [#15 Exclusion - Arginine B] : 23.7 nM

====

# Tested on: MS2 coat protein
# TEST DETAILS: apparent KD of MS2 coat protein, switch ON state; designed switch direction (-1 OFF switch, 1 ON switch): -1; higher = weaker reporter binding
# EXPERIMENTAL PARAMETERS: FMN input: 0 or 200 uM; Eterna round: R93 (includes R88 designs)
MEASUREMENT TYPE: apparent KD of MS2 coat protein (nM)
Report only the number, with the unit nM understood.

RESIDUE STRING	MEASUREMENT TYPE	NUMBER
AGCACGUCAGGAUAUACGAACACAAAGGGUAACAACAAGGGACAUGAGGAUCACCCAUGUAGAAGGGACAAGCA [Diamond 95]	apparent KD of MS2 coat protein	73.5
GAAGAACAUGAGGAUCACCCAUGUCAGGAUAUACAGAAGGGAAUAAAAUAACCUGAAAGUAGAAGGGACAAGAA [Ex 1 May 42]	apparent KD of MS2 coat protein	29
AAAGAUACAGGAUAUACAUGAGGAUCACCCAUGUGAGACCAAAAAUGGGAAAAAGAAAGUAGAAGGGUAUAAAA [Ex 3 May 36]	apparent KD of MS2 coat protein	39.9

The sequence listed as AAGAAGUCAGGAUAUACAAAAUAAAAGAAAAGAAAGAAAGAACAUGAGGAUCACCCAUGUAGAAGGGACAAGAA [Nerikare] shows apparent KD of MS2 coat protein equal to 57.8
